Attribution: patent US10040781B2

# MEASUREMENT TARGET: IKKε (Homo sapiens (Human), UniProt Q14164)
# Sequence (Q14164 whole entry): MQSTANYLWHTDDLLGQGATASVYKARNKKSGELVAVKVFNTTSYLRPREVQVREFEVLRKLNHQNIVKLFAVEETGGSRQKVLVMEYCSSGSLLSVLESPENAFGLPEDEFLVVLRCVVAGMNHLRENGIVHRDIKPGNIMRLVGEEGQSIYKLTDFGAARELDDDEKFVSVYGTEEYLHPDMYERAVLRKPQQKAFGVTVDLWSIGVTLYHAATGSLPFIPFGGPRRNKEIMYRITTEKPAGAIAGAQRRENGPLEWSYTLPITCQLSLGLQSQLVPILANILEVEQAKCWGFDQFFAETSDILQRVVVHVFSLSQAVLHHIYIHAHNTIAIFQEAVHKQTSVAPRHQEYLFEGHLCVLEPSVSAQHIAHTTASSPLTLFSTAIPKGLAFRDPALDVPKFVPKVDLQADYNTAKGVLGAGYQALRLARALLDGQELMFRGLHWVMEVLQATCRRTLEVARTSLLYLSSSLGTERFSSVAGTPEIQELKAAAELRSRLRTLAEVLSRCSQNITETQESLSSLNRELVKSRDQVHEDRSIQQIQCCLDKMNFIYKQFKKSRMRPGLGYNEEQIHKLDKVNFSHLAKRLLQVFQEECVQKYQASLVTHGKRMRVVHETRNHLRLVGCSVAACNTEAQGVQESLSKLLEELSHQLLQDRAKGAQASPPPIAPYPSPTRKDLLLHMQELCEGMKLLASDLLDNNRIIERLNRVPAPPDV
# TEST METHOD NOTES: IKKε TR-FRET enzymatic assay
# Assay type: biochemical
# CONDITION SET: read-out: IKKe IC50
PROPERTY MEASURED: IC50 (nM)

| COMPOUND | MEASUREMENT TARGET | IC50 (nM) |
| --- | --- | --- |
| C[C@H]1CN(C2COC2)CCN1c1ccc(Nc2ncnc(-c3ccc(O[C@H]4CCN(C(=O)CCO)C[C@H]4F)c(C#N)c3)n2)cc1 [Example 251] | IKKε (Homo sapiens (Human), UniProt Q14164) | 14 |
| C[C@H](O)C(=O)N1CC[C@H](Oc2ccc(-c3ncnc(Nc4ccc5cnn(C)c5c4)n3)cc2C#N)[C@H](F)C1 [Example 344] | IKKε (Homo sapiens (Human), UniProt Q14164) | 5 |
| N#Cc1cc(-c2ncnc(Nc3ccc(N4CCN(C5COC5)CC4)cc3)n2)ccc1OC1CCCOC1 (stereo not drawn) [Example 34] | IKKε (Homo sapiens (Human), UniProt Q14164) | 45 |

A: C[C@@H]1C[C@@H](Oc2ccc(-c3ncnc(Nc4ccc(N5CCN(C6COC6)CC5)cc4)n3)cc2C#N)CCN1C(=O)CO [Example 168]
B: C[C@H]1CN(C2COC2)CCN1c1ccc(Nc2ncnc(-c3ccc(O[C@H]4CCN(C(=O)c5cnc[nH]5)CC4(F)F)c(C#N)c3)n2)cc1 [Example 259]
C: N#Cc1cc(-c2ncnc(Nc3ccc(N4CCN(C5COC5)CC4)cc3)n2)ccc1O[C@H]1CCN(C(=O)c2cn(CCO)nn2)C[C@H]1F [Example 376]
Your job: order these 3 records by IC50, ascending. # the answer lists labels in the order requested B, C, A

----------
# MEASUREMENT TARGET: UniProtKB Q9UHD2
# TEST METHOD NOTES: TBK1 TR-FRET enzymatic assay
PROPERTY MEASURED: IC50 (nM)

| CHEMICAL STRUCTURE | MEASUREMENT TARGET | ASSAY RESULT |
| --- | --- | --- |
| CC1(C)CNC[C@@H](F)[C@H]1Oc1ccc(-c2ncnc(Nc3ccc(N4CCN(C5COC5)CC4)cc3)n2)cc1C#N | UniProtKB Q9UHD2 | 22 |
| N#Cc1cc(-c2ncnc(Nc3ccc(N4CCN(C5COC5)CC4)cc3)n2)ccc1O[C@H]1CCN(C(=O)c2cnco2)C[C@H]1F | UniProtKB Q9UHD2 | 3 |
| CC(C)NC(=O)c1ccc(Nc2ncnc(-c3ccc(O[C@@H]4CCNC4)c(C#N)c3)n2)cc1 | UniProtKB Q9UHD2 | 72 |
| C[C@H](O)C(=O)N1CC[C@H](Oc2ccc(-c3ncnc(Nc4ccc(N5CCN(C6COC6)[C@@H](C)C5)cc4)n3)cc2C#N)[C@H](F)C1 | UniProtKB Q9UHD2 | 2 |

A: C[C@H](O)C(=O)N1CC[C@H](Oc2ccc(-c3ncnc(Nc4ccc(-c5ccn(C)c(=O)c5)cc4)n3)cc2C#N)[C@H](F)C1
B: CC(C)(C)n1cc(Nc2ncnc(-c3ccc(O[C@H]4CCN(C(=O)CCO)C[C@H]4F)c(C#N)c3)n2)cn1
C: CC(C)(O)CC(=O)N1CC[C@H](Oc2ccc(-c3ncnc(Nc4ccc(N5CCN(C6COC6)CC5)cc4)n3)cc2C#N)[C@H](F)C1
D: COc1cc(Nc2ncnc(-c3ccc(OC4CCOCC4)c(C#N)c3)n2)ccc1N1CCN(CC(F)F)CC1
Please put the entries in order of rising IC50. In your reply, arrange the labels in the requested order. D, A, B, C

----------
# MEASUREMENT TARGET: TBK1 (Homo sapiens (Human))
# TEST METHOD NOTES: TBK1 TR-FRET enzymatic assay
pIC50: −log10 of the molar value.
PROPERTY MEASURED: pIC50

| CHEMICAL STRUCTURE | MEASUREMENT TARGET | ASSAY RESULT |
| --- | --- | --- |
| N#Cc1cc(-c2ncnc(Nc3ccc(N4CCN(C5COC5)CC4)cc3)n2)ccc1O[C@H]1CCN(C(=O)C2(O)CNC2)C[C@H]1F | TBK1 (Homo sapiens (Human)) | 7.60 |

A: C[C@@H](O)C(=O)N1C[C@@H](F)[C@@H](Oc2ccc(-c3ncnc(Nc4ccc(N5CCN(C6COC6)CC5)cc4)n3)cc2C#N)C[C@@H]1C
B: C[C@H](O)C(=O)N1CC[C@H](Oc2ccc(-c3ncnc(Nc4ccc(N5CCN(C6COC6)CC5=O)cc4)n3)cc2C#N)[C@H](F)C1
Lower value of pIC50 belongs to which: A or B ? # answer = label of selected item A
(A: 7.37, B: 8.52)

----------
# MEASUREMENT TARGET: IKKε (Homo sapiens (Human), UniProt Q14164)
# TEST METHOD NOTES: IKKε TR-FRET enzymatic assay
# Type: biochemical
# CONDITION SET: TR-FRET, 2×Km ATP; geometric mean of minimum four determinations; read-out: IKKe IC50
pIC50: −log10 of the molar value.
PROPERTY MEASURED: pIC50

| COMPOUND | pIC50 |
| --- | --- |
| C[C@@H](O)C(=O)N1C[C@@H](F)[C@@H](Oc2ccc(-c3ncnc(Nc4ccc(N5CCN(C6COC6)CC5)cc4)n3)cc2C#N)C[C@@H]1C | 6.69 |

1: N#Cc1cc(-c2ncnc(Nc3ccc(N4CCN(C5COC5)CC4)cc3)n2)ccc1O[C@H]1CCN(C(=O)N2CC[C@H](O)C2)C[C@H]1F
2: COc1cc(Nc2ncnc(-c3ccc(O[C@H]4CCN(C(=O)[C@H](C)O)C[C@H]4F)c(C#N)c3)n2)ccc1N1CCN(C)C[C@@H]1C
3: N#Cc1cc(-c2ncnc(Nc3ccc(N4CCN(C5COC5)CC4)cc3)n2)ccc1O[C@H]1CCN(C(=O)[C@@H]2CC(=O)N2)C[C@H]1F
4: Cc1nnc(C(=O)N2CC[C@H](Oc3ccc(-c4ncnc(Nc5cnn(C(C)(C)C)c5)n4)cc3C#N)[C@H](F)C2)[nH]1
5: CC(=O)Nc1ccc(Nc2ncnc(-c3ccc(O[C@H]4CCN(C(=O)[C@@H]5CCC(=O)N5)C[C@H]4F)c(C#N)c3)n2)cn1
Arrange the 5 entries by pIC50 so the values rise. Lab note: final answer is the ordered label list. 1, 5, 3, 4, 2

a: N#Cc1cc(-c2ncnc(Nc3ccc(N4CCOCC4)cc3)n2)ccc1O[C@H]1CCN(C(=O)[C@@H](O)CO)C[C@H]1F
b: C[C@@H](N)C(=O)N1CC[C@H](Oc2ccc(-c3ncnc(Nc4ccc(N5CCN(C6COC6)CC5)cc4)n3)cc2C#N)[C@H](F)C1
c: CC(C)(C)n1cc(Nc2ncnc(-c3ccc(O[C@H]4CCN(C(=O)[C@@H](O)CO)C[C@H]4F)c(C#N)c3)n2)cn1
Rank order required: pIC50, descending. To answer, arrange all of the labels according to the requested order. a, c, b
(a: 9.00, c: 8.70, b: 6.55)

1: C[C@H]1CN(C(=O)CO)CC(F)(F)[C@H]1Oc1ccc(-c2ncnc(Nc3ccc(N4CCN(C5COC5)CC4)cc3)n2)cc1C#N (relative stereo)
2: C[C@H](O)C(=O)N1CC[C@H](Oc2ccc(-c3ncnc(Nc4ccc(N5CCO[C@@H](CO)C5)cc4)n3)cc2C#N)C(F)(F)C1
// task: argmin of pIC50 over [ 1 , 2 ] Your answer should be the label attached to the chosen record. 1
(1: 8.70, 2: 9.00)

----------
# MEASUREMENT TARGET: TBK1 (Homo sapiens (Human), UniProt Q9UHD2)
# Sequence (Q9UHD2 whole entry): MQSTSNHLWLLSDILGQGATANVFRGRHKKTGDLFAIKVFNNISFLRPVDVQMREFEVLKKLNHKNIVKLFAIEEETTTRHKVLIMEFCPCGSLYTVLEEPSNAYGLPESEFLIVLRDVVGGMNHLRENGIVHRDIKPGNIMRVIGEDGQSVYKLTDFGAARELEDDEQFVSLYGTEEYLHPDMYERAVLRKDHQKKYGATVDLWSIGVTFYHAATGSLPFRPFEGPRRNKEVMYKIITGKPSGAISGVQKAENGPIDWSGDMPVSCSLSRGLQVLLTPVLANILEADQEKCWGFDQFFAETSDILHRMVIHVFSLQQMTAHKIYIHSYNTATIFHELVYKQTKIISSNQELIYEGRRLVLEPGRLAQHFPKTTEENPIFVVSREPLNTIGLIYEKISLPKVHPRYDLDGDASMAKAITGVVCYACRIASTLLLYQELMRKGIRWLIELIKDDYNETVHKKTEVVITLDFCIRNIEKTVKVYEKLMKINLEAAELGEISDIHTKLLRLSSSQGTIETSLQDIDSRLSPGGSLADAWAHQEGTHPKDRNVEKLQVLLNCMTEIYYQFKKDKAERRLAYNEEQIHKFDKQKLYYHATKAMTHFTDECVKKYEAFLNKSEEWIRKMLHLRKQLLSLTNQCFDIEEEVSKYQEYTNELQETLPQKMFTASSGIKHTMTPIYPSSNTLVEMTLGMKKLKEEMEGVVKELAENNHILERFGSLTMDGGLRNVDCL
# TEST METHOD NOTES: TBK1 TR-FRET enzymatic assay;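 note: phosphorylation of a biotinylated Ser/Thr peptide by purified full-length recombinant TBK1, read by TR-FRET after 240 min at 25 °C, IC50 is the geometric mean of at least four runs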
PROPERTY MEASURED: IC50 (nM)

Examples from the recorded data:
| MOLECULE | IC50, nM |
| --- | --- |
| N#Cc1cc(-c2ncnc(Nc3ccc(N4CCN(C5COC5)CC4)cc3)n2)ccc1O[C@H]1CCN(C(=O)[C@@H]2CNC(=O)C2)C[C@H]1F | 21 |
| N#Cc1cc(-c2ncnc(Nc3ccc(N4CCN(C5COC5)CC4)cc3)n2)ccc1O[C@H]1CCN(C(=O)C(F)F)C[C@H]1F | 3 |
| N#Cc1cc(-c2ncnc(Nc3ccc(N4CCN(C5COC5)CC4)cc3)n2)ccc1O[C@H]1CCN(C(=O)c2cnc[nH]2)C[C@H]1F | 3 |
| Cc1nc(C)c(Nc2ncnc(-c3ccc(O[C@H]4CCN(C(=O)[C@H](C)O)C[C@H]4F)c(C#N)c3)n2)s1 | 6 |
| N#Cc1cc(-c2ncnc(Nc3ccc(N4CCN(C5COC5)CC4)cc3)n2)ccc1O[C@H]1CCN(C(=O)[C@@H]2COCCN2)C[C@H]1F | 23 |

1: C[C@@H](Oc1ccc(-c2ncnc(Nc3ccc(N4CCN(C5COC5)CC4)cc3)n2)cc1C#N)C1CCOCC1
2: C[C@H](O)C(=O)N1CC[C@H](Oc2ccc(-c3ncnc(Nc4cccc(CN5CCOCC5)c4)n3)cc2C#N)[C@H](F)C1
3: N#Cc1cc(-c2ncnc(Nc3ccc(N4CCN(C5COC5)CC4)cc3)n2)ccc1O[C@H]1CCN(C(=O)CO)C[C@@H]1C(F)(F)F (relative stereo)
4: COc1cc(Nc2ncnc(-c3ccc(N4C[C@H](O)CCC4=O)c(C#N)c3)n2)ccc1N1CCN(C2COC2)CC1
5: CNC(=O)N1CCC(Oc2ccc(-c3ncnc(Nc4ccc(N5CCN(C6COC6)CC5)cc4)n3)cc2C#N)CC1
Hi! Can you put these in order of IC50, lowest number first? List the labels in the requested order. 2, 3, 1, 5, 4
